Biological target: Tyrosine-protein kinase Tec (Homo sapiens) (UniProt P42680)
Sequence (P42680 whole entry): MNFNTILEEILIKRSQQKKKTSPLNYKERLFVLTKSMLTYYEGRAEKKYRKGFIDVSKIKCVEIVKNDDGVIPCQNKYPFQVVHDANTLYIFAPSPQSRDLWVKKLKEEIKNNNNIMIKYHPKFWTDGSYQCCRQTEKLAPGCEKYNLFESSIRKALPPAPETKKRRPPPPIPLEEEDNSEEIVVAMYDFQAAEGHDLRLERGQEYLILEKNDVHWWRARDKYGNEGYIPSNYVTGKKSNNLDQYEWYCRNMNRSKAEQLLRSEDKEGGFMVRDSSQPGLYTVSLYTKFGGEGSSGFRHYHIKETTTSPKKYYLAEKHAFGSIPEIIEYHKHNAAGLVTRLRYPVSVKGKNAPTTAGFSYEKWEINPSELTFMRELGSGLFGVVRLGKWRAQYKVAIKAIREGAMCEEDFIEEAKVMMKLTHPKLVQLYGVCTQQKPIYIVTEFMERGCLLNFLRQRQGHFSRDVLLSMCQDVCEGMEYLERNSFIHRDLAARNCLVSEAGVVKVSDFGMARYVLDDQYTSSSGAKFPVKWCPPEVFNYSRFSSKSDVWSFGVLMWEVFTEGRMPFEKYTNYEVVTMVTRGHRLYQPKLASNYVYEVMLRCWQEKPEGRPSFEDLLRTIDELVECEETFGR
Settings: at 0.1 µM
Description: GSK_PKIS: TEC mean inhibition at 0.1 uM [Nanosyn]
reported.metric: inhibition (%)
Output spec: scalar in %, unitless text.

Query block: Endpoint output: inhibition of "CCN1CCC(CC(=O)Nc2n[nH]c3nc(-c4cccs4)c(Br)cc23)CC1" . Value?
Result block: -2

More entries:
Query block: Endpoint output: inhibition of "O=C1Nc2ccc(C(=O)c3ccco3)cc2C1=Cc1cc(Cl)c(O)c(Cl)c1" . Value?
Result block: 3.56

Query block: Now the same for "Cc1cccc(-c2n[nH]cc2-c2ccc3ncccc3n2)n1"
Result block: 0.76

Query block: Now the same for "CN1CCC(C(=O)Nc2n[nH]c3nnc(-c4ccccc4)cc23)CC1"
Result block: 3.47

Query block: Now the same for CC1=C(C(=O)Nc2ccc3[nH]ncc3c2)C(c2ccc(Cl)c(Cl)c2)CC(=O)N1 (stereo not given)
Result block: 2.26

* * *

# inhibition listing for each entry below
Molecular target: Tyrosine-protein kinase ITK/TSK (Homo sapiens) (UniProt Q08881);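 note: mean percent inhibition of ITK from the GSK PKIS screen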
Sequence (Q08881 whole entry): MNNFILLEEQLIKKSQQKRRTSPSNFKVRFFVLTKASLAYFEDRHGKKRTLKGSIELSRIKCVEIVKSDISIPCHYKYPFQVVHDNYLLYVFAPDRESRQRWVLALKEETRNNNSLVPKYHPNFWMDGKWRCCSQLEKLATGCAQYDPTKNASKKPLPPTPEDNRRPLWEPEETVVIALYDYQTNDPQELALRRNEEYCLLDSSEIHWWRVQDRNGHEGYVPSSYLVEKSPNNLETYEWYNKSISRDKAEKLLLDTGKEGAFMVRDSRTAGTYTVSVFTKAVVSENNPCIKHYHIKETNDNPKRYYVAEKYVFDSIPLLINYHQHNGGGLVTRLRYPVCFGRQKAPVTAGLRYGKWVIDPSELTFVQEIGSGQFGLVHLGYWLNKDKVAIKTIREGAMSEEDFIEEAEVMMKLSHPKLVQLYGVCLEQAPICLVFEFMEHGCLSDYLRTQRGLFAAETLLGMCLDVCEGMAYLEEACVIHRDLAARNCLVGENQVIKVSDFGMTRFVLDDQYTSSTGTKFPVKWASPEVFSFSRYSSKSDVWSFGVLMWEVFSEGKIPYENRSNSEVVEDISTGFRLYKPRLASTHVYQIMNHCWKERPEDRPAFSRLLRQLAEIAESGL
Conditions: at 0.1 µM
Output spec: scalar in %, unitless text.

Some solved cases for reference:
Query block: Endpoint output: inhibition of "Cc1nnc(-c2ccc(C)c(-c3ccc(C(=O)Nc4cccc(C#N)c4)cc3)c2)o1" . Value?
Result block: 0.98

Query block: Now the same for "NCc1ccc(-c2nc(-c3ccc(Cl)c(O)c3)c(-c3ccncc3)[nH]2)cc1"
Result block: 0.2

Query block: Now the same for "CCN1CCC(CC(=O)Nc2n[nH]c3nc(-c4cccs4)c(Br)cc23)CC1"
Result block: -0.21

Query block: Now the same for "Cc1cc(O)cc(C)c1/C=C/c1cncc(-c2nn[nH]n2)c1"
Result block: -2.15

Query block: Now the same for "CS(=O)(=O)CCNCc1ccc(-c2ccc3ncnc(Nc4ccc(OCc5ccccc5)c(Cl)c4)c3c2)o1"
Result block: -0.01

Query block: Now the same for "O=C1NC(=O)C(c2ccc(Cl)cc2)=C1Nc1ccc(Cl)c(C(=O)O)c1"
Result block: -0.06

Query block: Now the same for "N#Cc1c(NC(=O)c2cccc3ccccc23)sc2c1CCCC2"
Result block: 1.77

Query block: Now the same for "[O-][S+]1CCN(Cc2ccc(-c3ccc4ncnc(Nc5ccc(OCc6ccccc6)c(F)c5)c4c3)o2)CC1"
Result block: 1.08

Shift focus to the following entry.
Query block: Endpoint output: inhibition of "NC(=O)c1ccc(-c2nc(-c3ccccn3)c(-c3ccc4c(c3)OCO4)[nH]2)cc1" . Value?
Result block: 1.2

* * *

Molecular target: G protein-coupled receptor kinase 6 (Homo sapiens)
Conditions: at 1 µM
# inhibition listing for each entry below
Output spec: scalar in %, unitless text.

Query block: Item: "CS(=O)(=O)CCNCc1ccc(-c2ccc3ncnc(Nc4ccc(OCc5cccc(F)c5)c(C(F)(F)F)c4)c3c2)o1" Test system: G protein-coupled receptor kinase 6 (Homo sapiens) Read-out: inhibition Value: ?
Result block: 5.4

Query block: Now the same for "NC(=O)c1cccc(Nc2nccc(Nc3cccc4[nH]ncc34)n2)c1"
Result block: 2.35

Query block: Now the same for "CCn1c(-c2nonc2N)nc2c(C#CC(C)(C)O)nc(OC[C@@H](N)c3ccccc3)cc21"
Result block: -0.69

More entries:
Query block: Item: "Fc1cccc(COc2ccc(Nc3ncnc4cc(-c5ccc[nH]5)sc34)cc2Cl)c1" Test system: G protein-coupled receptor kinase 6 (Homo sapiens) Read-out: inhibition Value: ?;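 note: values are averaged percent inhibition of GRK6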
Result block: 2.64

Query block: Now the same for "Nc1ncnc2occ(-c3ccc(NC(=O)Nc4cc(C(F)(F)F)cc(C(F)(F)F)c4)cc3)c12"
Result block: -6.02

Query block: Now the same for "COc1ccccc1Nc1ncc(-c2ccccc2)o1"
Result block: 3.95

Query block: Now the same for "COC(=O)Nc1nc2cc(Oc3ccc(NC(=O)Nc4cccc(C(=O)O)c4)cc3)ccc2[nH]1"
Result block: -0.77

* * *

# inhibition listing for each entry below
Target: Interleukin-1 receptor-associated kinase 4 (Homo sapiens) (UniProt Q9NWZ3);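 note: mean inhibition values, from the GSK PKIS dataset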
Sequence (Q9NWZ3 whole entry): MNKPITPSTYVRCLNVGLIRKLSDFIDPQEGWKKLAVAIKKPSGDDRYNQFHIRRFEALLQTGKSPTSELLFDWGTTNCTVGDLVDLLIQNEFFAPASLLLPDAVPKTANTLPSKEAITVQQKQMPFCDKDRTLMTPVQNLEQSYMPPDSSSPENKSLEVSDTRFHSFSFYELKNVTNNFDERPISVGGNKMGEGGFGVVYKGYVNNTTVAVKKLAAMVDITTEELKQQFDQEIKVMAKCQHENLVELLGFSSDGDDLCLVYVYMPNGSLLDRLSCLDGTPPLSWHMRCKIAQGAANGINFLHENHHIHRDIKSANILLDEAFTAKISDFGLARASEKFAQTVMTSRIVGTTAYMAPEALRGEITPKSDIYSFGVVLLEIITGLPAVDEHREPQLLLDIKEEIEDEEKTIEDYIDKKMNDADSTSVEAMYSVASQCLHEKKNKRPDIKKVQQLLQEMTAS
Details: at 1 µM
Output spec: scalar in %, unitless text.

Query block: Endpoint output: inhibition of "Cc1nnc(-c2ccc(C)c(-c3ccc(C(=O)Nc4cccc(C#N)c4)cc3)c2)o1" . Value?
Result block: 0.84

Query block: Now the same for CC1=C(C(=O)Nc2ccc3[nH]ncc3c2)C(c2ccc3ccccc3c2)CC(=O)N1 (stereo not drawn)
Result block: 0.83

Query block: Now the same for "CCn1c(-c2nonc2N)nc2c(C#CC(C)(C)O)nc(CN3CCCC3)cc21"
Result block: -0.93

* * *

# inhibition listing for each entry below
Target: Sphingosine kinase 1 (Homo sapiens);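 note: mean percent inhibition of SPHK1 activity, measured within the GSK PKIS screening panel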
Settings: at 0.1 µM
Output spec: scalar in %, unitless text.

Some solved cases for reference:
Query block: Endpoint output: inhibition of "Nc1ncnc2occ(-c3ccc(NC(=O)Nc4cc(C(F)(F)F)cc(C(F)(F)F)c4)cc3)c12" . Value?
Result block: 0.12

Query block: Now the same for "COc1ccccc1Nc1ncc(-c2ccccc2)o1"
Result block: 0

Query block: Now the same for "CCn1c(-c2nonc2N)nc2cncc(C(=O)N3CC[C@H](N)C3)c21"
Result block: -0.79

Shift focus to the following entry.
Query block: Endpoint output: inhibition of "NC(=O)c1ccc(-c2nc(-c3ccccn3)c(-c3ccc4c(c3)OCO4)[nH]2)cc1" . Value?
Result block: 3.02

* * *

# inhibition listing for each entry below
Molecular target: Receptor tyrosine-protein kinase erbB-2 (Homo sapiens) (UniProt P04626)
Sequence (P04626 whole entry): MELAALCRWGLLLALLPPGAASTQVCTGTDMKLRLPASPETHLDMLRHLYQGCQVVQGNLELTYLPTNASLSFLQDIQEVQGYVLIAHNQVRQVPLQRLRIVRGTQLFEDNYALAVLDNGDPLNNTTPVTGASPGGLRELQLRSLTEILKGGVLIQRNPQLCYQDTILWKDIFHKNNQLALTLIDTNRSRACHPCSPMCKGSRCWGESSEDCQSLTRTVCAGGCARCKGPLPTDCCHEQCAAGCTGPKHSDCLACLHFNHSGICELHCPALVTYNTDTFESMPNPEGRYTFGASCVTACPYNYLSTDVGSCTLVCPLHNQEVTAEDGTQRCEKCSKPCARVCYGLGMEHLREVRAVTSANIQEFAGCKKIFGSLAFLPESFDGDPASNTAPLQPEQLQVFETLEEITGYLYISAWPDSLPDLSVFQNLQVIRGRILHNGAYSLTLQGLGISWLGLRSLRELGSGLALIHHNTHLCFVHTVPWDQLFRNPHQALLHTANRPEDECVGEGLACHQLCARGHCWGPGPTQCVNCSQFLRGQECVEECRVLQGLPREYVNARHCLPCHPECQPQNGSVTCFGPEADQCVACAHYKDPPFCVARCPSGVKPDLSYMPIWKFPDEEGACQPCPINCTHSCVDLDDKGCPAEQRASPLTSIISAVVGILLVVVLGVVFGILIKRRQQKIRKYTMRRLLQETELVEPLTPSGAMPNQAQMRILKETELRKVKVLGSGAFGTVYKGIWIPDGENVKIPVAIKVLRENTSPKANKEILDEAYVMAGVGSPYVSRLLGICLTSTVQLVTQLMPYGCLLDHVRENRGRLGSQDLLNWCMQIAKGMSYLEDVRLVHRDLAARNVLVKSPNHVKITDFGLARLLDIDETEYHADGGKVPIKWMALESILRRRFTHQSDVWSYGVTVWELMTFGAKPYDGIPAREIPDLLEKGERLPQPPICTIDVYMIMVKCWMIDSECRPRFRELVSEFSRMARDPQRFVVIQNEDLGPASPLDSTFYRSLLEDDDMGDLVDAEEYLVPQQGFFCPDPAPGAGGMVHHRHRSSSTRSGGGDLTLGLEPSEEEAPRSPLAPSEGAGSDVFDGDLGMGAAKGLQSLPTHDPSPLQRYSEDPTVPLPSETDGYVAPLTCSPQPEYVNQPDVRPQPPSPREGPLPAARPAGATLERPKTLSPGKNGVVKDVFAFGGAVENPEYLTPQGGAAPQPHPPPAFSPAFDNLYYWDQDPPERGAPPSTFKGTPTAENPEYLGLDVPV
Settings: at 1 µM
Description: GSK_PKIS: ERBB2 mean inhibition at 1 uM [Nanosyn]
Output spec: scalar in %, unitless text.

Some solved cases for reference:
Query block: Endpoint output: inhibition of "CS(=O)(=O)CCN(CC#N)Cc1ccc(-c2ccc3ncnc(Nc4ccc(OCc5cccc(F)c5)c(Cl)c4)c3c2)o1" . Value?
Result block: 66.7

Query block: Now the same for "CN(C)c1cc2c(Nc3ccc4nc(Cc5ccccc5)[nH]c4c3)ncnc2cn1"
Result block: 67.7

Query block: Now the same for "Nc1nc(-c2ccc3c(c2)C(=Cc2cc(Br)c(O)c(Br)c2)C(=O)N3)cs1"
Result block: 2.84

Shift focus to the following entry.
Query block: Endpoint output: inhibition of "O=C1NC(=O)C(c2cccc(Cl)c2)=C1Nc1ccc(O)c(Cl)c1" . Value?
Result block: -5.89

* * *

Molecular target: Ribosomal protein S6 kinase alpha-5 (Homo sapiens) (UniProt O75582);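 note: mean inhibition of MSK1 reported, from a GSK PKIS inhibitor set screen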
Sequence (O75582 whole entry, looked up): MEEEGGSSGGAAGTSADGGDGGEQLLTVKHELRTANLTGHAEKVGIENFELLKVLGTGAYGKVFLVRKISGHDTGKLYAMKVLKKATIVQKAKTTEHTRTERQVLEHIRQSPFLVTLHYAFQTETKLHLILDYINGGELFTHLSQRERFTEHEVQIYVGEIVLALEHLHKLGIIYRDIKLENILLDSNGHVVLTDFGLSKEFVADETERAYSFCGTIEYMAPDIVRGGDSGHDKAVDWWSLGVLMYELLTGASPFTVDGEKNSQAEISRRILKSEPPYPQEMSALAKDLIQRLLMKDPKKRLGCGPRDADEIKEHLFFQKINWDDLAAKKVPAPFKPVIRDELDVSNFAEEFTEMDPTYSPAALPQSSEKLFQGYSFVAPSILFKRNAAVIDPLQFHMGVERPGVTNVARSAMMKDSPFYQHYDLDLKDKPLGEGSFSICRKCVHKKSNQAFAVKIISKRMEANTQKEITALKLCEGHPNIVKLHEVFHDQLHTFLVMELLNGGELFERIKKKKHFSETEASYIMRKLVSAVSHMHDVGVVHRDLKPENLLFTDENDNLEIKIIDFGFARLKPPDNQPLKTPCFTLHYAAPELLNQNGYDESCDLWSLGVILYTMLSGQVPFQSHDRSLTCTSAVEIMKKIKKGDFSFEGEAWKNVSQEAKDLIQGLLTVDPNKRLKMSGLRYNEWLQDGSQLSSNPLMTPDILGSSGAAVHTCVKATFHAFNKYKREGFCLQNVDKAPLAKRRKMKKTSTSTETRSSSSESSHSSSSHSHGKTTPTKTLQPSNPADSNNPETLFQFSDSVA
Conditions: at 0.1 µM
reported.metric: inhibition (%)
Output spec: scalar in %, unitless text.

Query block: Endpoint output: inhibition of "COc1cccc(-n2ncc3c(N/N=C/c4cccc(F)c4)ncnc32)c1" . Value?
Result block: 0.41

Query block: Now the same for CC1=C(C(=O)Nc2ccc3[nH]ncc3c2)C(c2ccc(F)cc2)NC(=O)N1 (stereo unspecified)
Result block: 8.51

Query block: Now the same for "CS(=O)(=O)CCNCc1ccc(-c2ccc3ncnc(Nc4ccc(OCc5cccc(F)c5)c(C(F)(F)F)c4)c3c2)o1"
Result block: 9.28

Query block: Now the same for "NS(=O)(=O)c1ccc(N/N=C2\C(=O)Nc3ccc(C(=O)NCCc4c[nH]cn4)cc32)cc1"
Result block: 4.49

Query block: Now the same for "CNC(=O)c1cncc(/C=C/c2c(Cl)cccc2Cl)c1"
Result block: 0.58

Shift focus to the following entry.
Query block: Endpoint output: inhibition of "CCc1cccc(NC(=O)Nc2ccc(Oc3ccc4nc(NC(=O)OC)[nH]c4c3)cc2)c1" . Value?
Result block: -4.58

* * *

Target: Serine/threonine-protein kinase 26 (Homo sapiens)
Details: at 0.1 µM
Description: GSK_PKIS: MST4 mean inhibition at 0.1 uM [Nanosyn]
# inhibition listing for each entry below
Output spec: scalar in %, unitless text.

Some solved cases for reference:
Query block: Endpoint output: inhibition of "Cc1nn(C)c2cc(N(C)c3ccnc(Nc4cccc(S(N)(=O)=O)c4)n3)ccc12" . Value?
Result block: -0.82

Query block: Now the same for "CCn1c(-c2nonc2N)nc2c(C#CC(C)(C)O)nc(OC[C@@H](N)c3ccccc3)cc21"
Result block: 1.4

Query block: Now the same for "CCn1c(-c2nonc2N)nc2ccncc21"
Result block: 1.67

More entries:
Query block: Endpoint output: inhibition of "COc1cc(C)c(NC(=O)CN(C)C)cc1Nc1nc(Nc2cccc(F)c2C(N)=O)c2cc[nH]c2n1" . Value?
Result block: 0.41

* * *

Molecular target: Ephrin type-B receptor 3 (Homo sapiens);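 note: reported value is the mean percent inhibition of EPHB3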
Conditions: at 0.1 µM
reported.metric: inhibition

Some solved cases for reference:
Query block: Endpoint output: inhibition of "Nc1ncnc2occ(-c3ccc(NC(=O)Nc4cccc(C(F)(F)F)c4)cc3)c12" . Value?
Result block: 19.6%

Query block: Now the same for "Nc1ncnc2occ(-c3ccc(NC(=O)Nc4cc(C(F)(F)F)cc(C(F)(F)F)c4)cc3)c12"
Result block: 6.66%

Query block: Now the same for "COc1cc2ncn(-c3cc(OCc4ccccc4Cl)c(C(N)=O)s3)c2cc1OC"
Result block: 2.15%

Query block: Now the same for "O=C1NC(=O)C(c2ccc(Cl)cc2)=C1Nc1ccc(Cl)c(C(=O)O)c1"
Result block: -6.22%

Query block: Now the same for "O=C1NC(=O)C(c2cccc(Cl)c2)=C1Nc1ccc(O)c(Cl)c1"
Result block: 2.73%

More entries:
Query block: Endpoint output: inhibition of "Cc1ccc(NC(=O)c2ccnc(N3CCCC3)c2)cc1-c1ccc(C(=O)NCC2CC2)cc1" . Value?
Result block: 1.72%

Where do the numbers come from? From ChEMBL document CHEMBL1961873.
